system: COLO 205 colon; assay: NCI tumour cell line growth inhibition, 48 h
TGI values for the compounds below.

Check out these entries, answers already filled in.
In [3]: df
Out[3]:
                                   compound  metric    result
0  COc1cc(/C=C2\[C@H]3c4c(c(OC)c(C)c(OC)c4OC)C[C@@H](C(=O)N2Cc2ccccc2)N3C(=O)OC(C)C)c(OC)c(C)c1OC     TGI  > 100 µM
1  COC(=O)C(C(=O)C(=O)NC1=C(Cl)C(=O)c2ccccc2C1=O)c1csc(-n2nc(-c3ccccc3)cc2-c2ccccc2)n1 (stereo unspecified)     TGI  > 100 µM
2  O=C1c2cc3c(cc2-c2c1c1ccc(Cl)cc1c(=O)n2C[C@H](O)[C@@H](O)[C@H](O)CO)OCO3     TGI  0.895 µM

What does the record list as TGI for Nc1ncnc2c1ncn2C1C=CC(CP(=O)(O)O)C1 (stereo unspecified) ?
> 100 µM

Now the compound "Cc1cccc2c(N=Nc3ccc(S(N)(=O)=O)cc3)c(O)[nH]c12"
> 25 µM

Next compound up: CCOC(=O)C(Cc1ccccc1)NC(=O)c1ccc(N=NN(C)C)cc1 (stereo unspecified)
> 100 µM

Next compound: "Nc1cc2c3c(cccc3c1)C(=O)N(c1ccc(OCCN3CCCCC3)cc1)C2=O"
35.7 µM

What would you report for COc1ccc(C(=O)N2CCc3c([nH]c4ccccc34)C2C(=O)O)o1 (stereo unspecified) ?
> 10 µM
